# System: Aβtotal
# method: Screening for γ-secretase-modulating activity, Method 1: Aβtotal sandwich ELISA on SKNBE2 cell media
# Format: cell-based
# experimentalParameters: Homo sapiens; Table 3a; SKNBE2 cells carrying APP 695 wild type, 18 hours; XLfit, top/bottom fixed to 100 and 0, hill slope 1
# Description: Screening was carried out using SKNBE2 cells carrying the APP 695—wild type, grown in Dulbecco's Modified Eagle's Medium/Nutrient mixture F-12 (DMEM/NUT-mix F-12) (HAM) provided by Gibco (cat no. 31330-38) containing 5% Serum/Fe supplemented with 1% non-essential amino acids. Cells were grown to near confluency. […] To quantify the amount of Aβtotal in the cell supernatant, samples and standards were added to a 6E10-coated plate. […]
pIC50: −log10 of the molar value.
attributeMeasured: pIC50

For "COc1cc(Nc2cccc3c2nc(CC2CCN(C(C)=O)CC2)n3C)ccc1-n1cnc(C)c1" , what is its reported pIC50? < 4.52

For "COc1cc(Nc2cccc3c2nc(-c2ccc(F)cc2)n3C)ccc1-n1cnc(C)c1" , what is its reported pIC50? < 6.00

For "Cc1cn(-c2ncc(Nc3cccc4c3nc(-c3ccc(F)cc3)n4C)cn2)cn1" , what is its reported pIC50? < 6.00

Further cases:
For "COc1cc(-c2nc3c(Nc4ccc(-n5cnc(C)n5)c(OC)c4)nccc3n2C)ccc1Cl" , what is its reported pIC50? < 5.52

For "COc1nc(Nc2cccc3c2nc(-c2ccc(F)cc2)n3C)ccc1-n1cnc(C)c1" , what is its reported pIC50? < 5.52

For "COc1cc(Nc2cc(C(C)C)nc3c2nc(-c2ccc(F)cc2)n3C)ccc1-n1cnc(C)n1" , what is its reported pIC50? < 5.52

For "Cc1ncnn1-c1ccc(Nc2nccc3c2nc(-c2ccc(F)cc2)n3C(C)C)cc1F" , what is its reported pIC50? < 5.00

For "COc1cc(Nc2cccc3oc(C4CCCCC4)nc23)ccc1-n1cnc(C)c1" , what is its reported pIC50? < 5.52

For "COc1cc(Nc2cccc3c2nc(CC2CCNCC2)n3C)ccc1-n1cnc(C)c1" , what is its reported pIC50? < 5.52

For "COc1cc(Nc2nccc3c2nc(-c2ccc(F)cc2)n3C)ccc1-n1cnc(C)c1" , what is its reported pIC50? < 5.52
